Assay: Selectivity index, ratio of IC50 for ovine COX1 to IC50 for human recombinant COX2
Listed here: items and their measured Ratio IC50.
measured attribute: Ratio IC50

{"columns": ["smiles record", "result"],
 "data": [
  ["O=C(Oc1ccccc1)c1c(-c2ccccc2)sc2c1CCCC2", 184],
  ["CC(=O)c1cccc(OC(=O)c2c(-c3ccccc3)sc3c2CCCC3)c1", 92.7],
  ["CC(=O)Nc1ccc(OC(=O)c2c(-c3ccccc3)sc3c2CCCC3)cc1", 48.8],
  ["NS(=O)(=O)c1ccc(OC(=O)c2c(-c3ccccc3)sc3c2CCCC3)cc1", 54.7]
]}

====

Test system: Rattus norvegicus
Test: Antiinflammatory activity in carrageenan-induced Wistar rat paw edema model assessed as rise in paw volume at 150 ug/kg administered 1 hr followed by carrageenan challenge measured at 60 mins by plethysmometer (reference value: 52.8%)
Assay type: functional
Output 1 (yes) for records whose Activity is lower than 30%, 0 (no) for records at or above 30%.

{"columns": ["smiles record", "label value"],
 "data": [
  ["N#Cc1ccc(OC(=O)c2c(-c3ccccc3)sc3c2CCCC3)cc1", "1 (yes)"],
  ["Cc1ccc(-c2cc(C(F)(F)F)nn2-c2ccc(S(N)(=O)=O)cc2)cc1", "1 (yes)"],
  ["NS(=O)(=O)c1ccc(OC(=O)c2c(-c3ccccc3)sc3c2CCCC3)cc1", "1 (yes)"],
  ["Nc1ccc(OC(=O)c2c(-c3ccccc3)sc3c2CCCC3)cc1", "0 (no)"],
  ["CC(=O)c1ccc(OC(=O)c2c(-c3ccccc3)sc3c2CCCC3)cc1", "0 (no)"]
]}

====

Target: Prostaglandin G/H synthase 2 (Homo sapiens)
Assay: Inhibition of human recombinant COX2 using arachidonic acid as substrate preincubated for 5 mins followed by substrate addition measured after 2 mins by ADHP probe-based fluorescence assay

{"columns": ["smiles record", "IC50 (nM)"],
 "data": [
  ["CC(=O)c1cccc(OC(=O)c2c(-c3ccccc3)sc3c2CCCC3)c1", 310],
  ["O=C(Oc1ccccc1)c1c(-c2ccccc2)sc2c1CCCC2", 330],
  ["NS(=O)(=O)c1ccc(OC(=O)c2c(-c3ccccc3)sc3c2CCCC3)cc1", 670],
  ["CC(=O)Nc1ccc(OC(=O)c2c(-c3ccccc3)sc3c2CCCC3)cc1", 1400]
]}

====

Measured inhibition values are reported for all entries that follow.
Target: Prostaglandin G/H synthase 2 (Homo sapiens) (UniProt P35354)
Sequence (whole entry): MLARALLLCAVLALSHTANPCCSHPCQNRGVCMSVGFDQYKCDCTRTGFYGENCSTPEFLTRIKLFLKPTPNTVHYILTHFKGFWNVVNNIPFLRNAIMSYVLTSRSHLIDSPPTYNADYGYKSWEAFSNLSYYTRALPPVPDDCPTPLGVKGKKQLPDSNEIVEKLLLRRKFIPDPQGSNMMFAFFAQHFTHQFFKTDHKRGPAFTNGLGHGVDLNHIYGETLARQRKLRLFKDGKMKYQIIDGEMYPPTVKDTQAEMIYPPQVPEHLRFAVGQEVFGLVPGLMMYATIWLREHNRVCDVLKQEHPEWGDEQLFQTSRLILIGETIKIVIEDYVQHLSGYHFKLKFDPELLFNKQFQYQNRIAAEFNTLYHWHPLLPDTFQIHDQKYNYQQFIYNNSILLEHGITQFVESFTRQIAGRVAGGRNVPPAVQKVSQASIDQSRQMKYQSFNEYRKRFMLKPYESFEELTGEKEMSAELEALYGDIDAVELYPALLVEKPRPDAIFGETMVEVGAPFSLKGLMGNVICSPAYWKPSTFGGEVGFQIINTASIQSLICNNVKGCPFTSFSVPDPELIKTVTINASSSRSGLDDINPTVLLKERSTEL
Conditions: at 60 µM
Description: Inhibition of human recombinant COX2 at 60 uM using arachidonic acid as substrate preincubated for 5 mins followed by substrate addition measured after 2 mins by ADHP probe-based fluorescence assay relative to control
measured attribute: inhibition (%)

{"columns": ["smiles record", "measured attribute", "unit name", "number"],
 "data": [
  ["O=C(Oc1ccc(Br)cc1)c1c(-c2ccccc2)sc2c1CCCC2", "inhibition", "%", 18.5],
  ["CC(=O)c1ccc(OC(=O)c2c(-c3ccccc3)sc3c2CCCC3)cc1", "inhibition", "%", 8.04],
  ["CC(=O)c1cccc(OC(=O)c2c(-c3ccccc3)sc3c2CCCC3)c1", "inhibition", "%", 93.5],
  ["COC(=O)Cc1ccc(OC(=O)c2c(-c3ccccc3)sc3c2CCCC3)cc1", "inhibition", "%", 15],
  ["COc1ccc(OC(=O)c2c(-c3ccccc3)sc3c2CCCC3)cc1", "inhibition", "%", 41],
  ["Nc1ccc(OC(=O)c2c(-c3ccccc3)sc3c2CCCC3)cc1", "inhibition", "%", 32.3],
  ["O=C(Oc1ccc(Cl)cc1)c1c(-c2ccccc2)sc2c1CCCC2", "inhibition", "%", 36.8],
  ["NS(=O)(=O)c1ccc(OC(=O)c2c(-c3ccccc3)sc3c2CCCC3)cc1", "inhibition", "%", 89.4],
  ["O=C(Oc1ccc([N+](=O)[O-])cc1)c1c(-c2ccccc2)sc2c1CCCC2", "inhibition", "%", 16.5],
  ["COC(=O)c1ccc(OC(=O)c2c(-c3ccccc3)sc3c2CCCC3)cc1", "inhibition", "%", 56.5],
  ["CC(=O)Nc1ccc(OC(=O)c2c(-c3ccccc3)sc3c2CCCC3)cc1", "inhibition", "%", 75.7],
  ["O=C(Oc1ccccc1)c1c(-c2ccccc2)sc2c1CCCC2", "inhibition", "%", 97.6],
  ["N#Cc1ccc(OC(=O)c2c(-c3ccccc3)sc3c2CCCC3)cc1", "inhibition", "%", 83.7],
  ["NC(=O)Cc1ccc(OC(=O)c2c(-c3ccccc3)sc3c2CCCC3)cc1", "inhibition", "%", 38.3],
  ["CC(C)(C)c1ccc(OC(=O)c2c(-c3ccccc3)sc3c2CCCC3)cc1", "inhibition", "%", 3.1],
  ["O=Cc1ccc(OC(=O)c2c(-c3ccccc3)sc3c2CCCC3)cc1", "inhibition", "%", 10.7],
  ["Cc1ccc(OC(=O)c2c(-c3ccccc3)sc3c2CCCC3)cc1", "inhibition", "%", 47.2]
]}

====

Target: COX1 (Prostaglandin G/H synthase 1) (Ovis aries)
Sequence (P05979 whole entry): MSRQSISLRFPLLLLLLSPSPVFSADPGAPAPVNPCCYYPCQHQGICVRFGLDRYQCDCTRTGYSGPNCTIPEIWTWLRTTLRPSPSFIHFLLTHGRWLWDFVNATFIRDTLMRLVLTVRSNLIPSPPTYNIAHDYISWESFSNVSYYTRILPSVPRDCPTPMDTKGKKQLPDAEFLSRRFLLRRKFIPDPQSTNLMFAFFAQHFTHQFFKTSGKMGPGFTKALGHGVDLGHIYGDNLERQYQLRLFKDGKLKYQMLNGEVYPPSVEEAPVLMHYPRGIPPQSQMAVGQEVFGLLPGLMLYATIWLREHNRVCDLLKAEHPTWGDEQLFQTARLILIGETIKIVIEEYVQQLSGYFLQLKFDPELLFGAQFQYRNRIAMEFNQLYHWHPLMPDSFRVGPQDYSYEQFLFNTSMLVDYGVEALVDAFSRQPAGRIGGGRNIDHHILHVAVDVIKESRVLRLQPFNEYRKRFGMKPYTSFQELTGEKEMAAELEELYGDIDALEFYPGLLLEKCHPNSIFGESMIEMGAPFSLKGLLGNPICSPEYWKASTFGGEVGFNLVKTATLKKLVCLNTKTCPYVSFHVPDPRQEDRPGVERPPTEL
Test: Inhibition of ovine COX1 at 60 uM using arachidonic acid as substrate preincubated for 5 mins followed by substrate addition measured after 2 mins by ADHP probe-based fluorescence assay relative to control
Details: sheep, ovine COX1 enzyme
Tick 1 if inhibition at 2 min, 60 µM is 20% or greater. Tick -1 if inhibition at 2 min, 60 µM is less than 20%.

{"columns": ["smiles record", "label value"],
 "data": [
  ["O=C(Oc1ccc(Cl)cc1)c1c(-c2ccccc2)sc2c1CCCC2", 1],
  ["O=C(Oc1ccc([N+](=O)[O-])cc1)c1c(-c2ccccc2)sc2c1CCCC2", -1],
  ["NC(=O)Cc1ccc(OC(=O)c2c(-c3ccccc3)sc3c2CCCC3)cc1", -1],
  ["CC(=O)Nc1ccc(OC(=O)c2c(-c3ccccc3)sc3c2CCCC3)cc1", 1],
  ["CC(=O)c1ccc(OC(=O)c2c(-c3ccccc3)sc3c2CCCC3)cc1", -1]
]}

====

Biological target: Prostaglandin G/H synthase 1 (Ovis aries)
Sequence (P05979 whole entry): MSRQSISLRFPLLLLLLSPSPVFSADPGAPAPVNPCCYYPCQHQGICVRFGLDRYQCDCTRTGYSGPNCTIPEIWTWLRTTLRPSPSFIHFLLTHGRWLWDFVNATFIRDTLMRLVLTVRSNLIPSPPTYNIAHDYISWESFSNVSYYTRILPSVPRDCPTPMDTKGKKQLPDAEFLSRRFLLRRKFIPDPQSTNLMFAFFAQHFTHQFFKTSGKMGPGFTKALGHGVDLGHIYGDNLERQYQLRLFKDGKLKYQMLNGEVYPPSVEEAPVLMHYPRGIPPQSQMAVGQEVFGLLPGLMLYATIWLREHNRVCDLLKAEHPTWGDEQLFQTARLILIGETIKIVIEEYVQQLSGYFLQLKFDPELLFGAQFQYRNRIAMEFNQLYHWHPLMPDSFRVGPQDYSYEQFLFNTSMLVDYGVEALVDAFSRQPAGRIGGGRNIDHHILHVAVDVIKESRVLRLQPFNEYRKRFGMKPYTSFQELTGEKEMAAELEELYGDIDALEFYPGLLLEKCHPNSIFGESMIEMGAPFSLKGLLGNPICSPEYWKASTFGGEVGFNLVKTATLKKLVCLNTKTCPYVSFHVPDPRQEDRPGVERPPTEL
pIC50: −log10 of the molar value.

{"columns": ["smiles record", "pIC50"],
 "data": [
  ["NS(=O)(=O)c1ccc(OC(=O)c2c(-c3ccccc3)sc3c2CCCC3)cc1", 4.43]
]}
